system: SW480; experiment: Cytotoxicity against human SW480 cells assessed as growth inhibition at 25 uM measured after 72 hrs by MTT assay; format: functional
Activity calls are given as the source filed them. The calls are words filed in the database; no cut-off is given here.
ENDPOINT_LABEL: growth inhibition (GI)

Known results for compounds:
{"TEST_SMILES": "COc1ccc(CNC(=O)/C(C#N)=C/c2ccc(CO)o2)cc1", "TARGET_OR_TEST_SYSTEM": "SW480", "ENDPOINT_LABEL": "growth inhibition (GI)", "MEASURED_RESULT": "inactive"}
{"TEST_SMILES": "N#C/C(=C\\c1ccc(C(F)(F)F)cc1)C(=O)c1c[nH]c2ccccc12", "TARGET_OR_TEST_SYSTEM": "SW480", "ENDPOINT_LABEL": "growth inhibition (GI)", "MEASURED_RESULT": "inactive"}
{"TEST_SMILES": "N#C/C(=C\\c1ccc(O)cc1)C(=O)NCc1ccc(Cl)c(Cl)c1", "TARGET_OR_TEST_SYSTEM": "SW480", "ENDPOINT_LABEL": "growth inhibition (GI)", "MEASURED_RESULT": "inactive"}
{"TEST_SMILES": "COc1ccc(/C=C(\\C#N)C(=O)NCc2ccc(OC)cc2)cc1", "TARGET_OR_TEST_SYSTEM": "SW480", "ENDPOINT_LABEL": "growth inhibition (GI)", "MEASURED_RESULT": "inactive"}

## Input Return reported growth inhibition (GI); argument: COc1ccc(CNC(=O)/C(C#N)=C/c2ccc(O)cc2)cc1
## Output inactive

## Input Here is the next compound: Cc1ccc(/C=C(\C#N)C(=O)c2c[nH]c3ccccc23)cc1
## Output inactive

## Input Here is the next compound: COc1ccc(CNC(=O)/C(C#N)=C/c2cc3ccccc3o2)cc1
## Output inactive

## Input Here is the next compound: Cc1ccc(/C=C(\C#N)C(=O)NCc2ccc(Cl)c(Cl)c2)cc1
## Output inactive

## Input Here is the next compound: N#C/C(=C\c1ccc(Cl)cc1)C(=O)c1c[nH]c2ccccc12
## Output inactive

## Input Here is the next compound: N#C/C(=C\c1ccc(O)cc1)C(=O)c1c[nH]c2ccccc12
## Output inactive

## Input Here is the next compound: Cc1ccc(/C=C(\C#N)C(=O)c2ccc[nH]2)cc1
## Output inactive

---

tested on: A2780; test: Cytotoxicity against human A2780 cells assessed as growth inhibition measured after 72 hrs by MTT assay; type: functional; conditions: A2780, 72 h
// boundary case: GI50 equal to 20 µM maps to not fulfilled; strictly smaller maps to fulfilled

## Input Dear colleague, could you confirm whether GI50 of COc1ccc(CNC(=O)/C(C#N)=C/c2ccc(Br)o2)cc1 falls below 20 µM? Thanks.
## Output fulfilled

## Input Here is the next compound: COc1ccc(CNC(=O)/C(C#N)=C/c2ccc(C)cc2)cc1
## Output not fulfilled

## Input Here is the next compound: COc1ccc(CNC(=O)/C(C#N)=C/c2ccc[nH]2)cc1
## Output not fulfilled

## Input Here is the next compound: COc1ccc(CNC(=O)/C(C#N)=C/c2ccoc2)cc1
## Output fulfilled

## Input Here is the next compound: N#C/C(=C\c1c(F)c(F)c(F)c(F)c1F)C(=O)c1c[nH]c2ccccc12
## Output fulfilled

## Input Here is the next compound: COc1ccc(CNC(=O)/C(C#N)=C/c2ccc(C)o2)cc1
## Output not fulfilled

## Input Here is the next compound: N#C/C(=C\c1ccc(Cl)cc1)C(=O)NCc1ccc(Cl)c(Cl)c1
## Output not fulfilled

## Input Here is the next compound: N#C/C(=C\c1ccc(Cl)cc1)C(=O)c1ccc[nH]1
## Output not fulfilled

## Input Here is the next compound: COc1ccc(CNC(=O)/C(C#N)=C/c2ccc3ccccc3c2)cc1
## Output not fulfilled

## Input Here is the next compound: COc1ccc(CNC(=O)/C(C#N)=C/c2cc(Br)co2)cc1
## Output not fulfilled

## Input Here is the next compound: COc1ccc(CNC(=O)/C(C#N)=C/c2ccc(-c3ccccc3)o2)cc1
## Output not fulfilled

## Input Here is the next compound: COc1ccc(CNC(=O)/C(C#N)=C/c2ccccc2)cc1
## Output fulfilled

## Input Here is the next compound: COc1ccc(CNC(=O)/C(C#N)=C/c2ccc(Cl)cc2)cc1
## Output fulfilled

## Input Here is the next compound: COc1ccc(CNC(=O)/C(C#N)=C/c2ccc(Cl)o2)cc1
## Output fulfilled

## Input Here is the next compound: N#C/C(=C\c1cccc2ccccc12)C(=O)NCc1ccc(Cl)c(Cl)c1
## Output fulfilled

## Input Here is the next compound: COc1ccc(CNC(=O)/C(C#N)=C/c2ccco2)cc1
## Output not fulfilled

## Input Here is the next compound: N#C/C(=C\c1c[nH]c2ccccc12)C(=O)c1c[nH]c2ccccc12
## Output fulfilled

## Input Here is the next compound: N#C/C(=C\c1ccc2ccccc2c1)C(=O)NCc1ccc(Cl)c(Cl)c1
## Output not fulfilled

## Input Here is the next compound: N#C/C(=C\c1c(F)c(F)c(F)c(F)c1F)C(=O)c1ccc[nH]1
## Output not fulfilled

## Input Here is the next compound: N#C/C(=C\c1ccc([N+](=O)[O-])cc1)C(=O)c1c[nH]c2ccccc12
## Output not fulfilled

## Input Here is the next compound: N#C/C(=C\c1ccc[nH]1)C(=O)NCc1ccc(Cl)c(Cl)c1
## Output not fulfilled

## Input Here is the next compound: N#C/C(=C\c1ccco1)C(=O)NCc1ccc(Cl)c(Cl)c1
## Output not fulfilled

## Input Here is the next compound: COc1ccc(/C=C(\C#N)C(=O)NCc2ccc(Cl)c(Cl)c2)cc1
## Output not fulfilled

## Input Here is the next compound: N#C/C(=C\c1ccccc1)C(=O)NCc1ccc(Cl)c(Cl)c1
## Output not fulfilled

## Input Here is the next compound: COc1ccc(CNC(=O)/C(C#N)=C/c2cccc3ccccc23)cc1
## Output fulfilled

---

assay: Cytotoxicity against human SJ-G2 cells assessed as growth inhibition measured after 72 hrs by MTT assay; type: functional; details: SJ-G2, 72 h
ENDPOINT_LABEL: GI50

## Input Return reported GI50; argument: COc1ccc(CNC(=O)/C(C#N)=C/c2ccc(-c3ccccc3)o2)cc1
## Output > 100 µM

## Input Here is the next compound: N#C/C(=C\c1ccco1)C(=O)NCc1ccc(Cl)c(Cl)c1
## Output > 50 µM

## Input Here is the next compound: COc1ccc(/C=C(\C#N)C(=O)NCc2ccc(Cl)c(Cl)c2)cc1
## Output > 100 µM

## Input Here is the next compound: N#C/C(=C\c1ccc[nH]1)C(=O)NCc1ccc(Cl)c(Cl)c1
## Output > 50 µM

## Input Here is the next compound: COc1ccc(CNC(=O)/C(C#N)=C/c2ccc[nH]2)cc1
## Output > 50 µM

---

assay: Cytotoxicity against mouse SMA cells assessed as growth inhibition measured after 72 hrs by MTT assay
ENDPOINT_LABEL: GI50 (µM)
Output spec: scalar in µM, unitless text.

## Input Return reported GI50; argument: COc1ccc(CNC(=O)/C(C#N)=C/c2ccc(C)cc2)cc1
## Output 42

## Input Here is the next molecule: N#C/C(=C\c1c[nH]c2ccccc12)C(=O)c1c[nH]c2ccccc12
## Output 15

## Input Here is the next molecule: COc1ccc(CNC(=O)/C(C#N)=C/c2cccc3ccccc23)cc1
## Output 15

## Input Here is the next molecule: COc1ccc(CNC(=O)/C(C#N)=C/c2ccoc2)cc1
## Output 7

---

So I've got a bunch of compounds here, and I need their GI50 values.
assay: Cytotoxicity against mouse SMA cells assessed as growth inhibition measured after 72 hrs by MTT assay

## Input Return reported GI50; argument: COc1ccc(CNC(=O)/C(C#N)=C/c2ccc[nH]2)cc1
## Output > 50 µM

## Input Here is the next compound: N#C/C(=C\c1ccc[nH]1)C(=O)NCc1ccc(Cl)c(Cl)c1
## Output > 50 µM

## Input Here is the next compound: COc1ccc(/C=C(\C#N)C(=O)NCc2ccc(Cl)c(Cl)c2)cc1
## Output > 100 µM
